Target: human VPAC1 (Homo sapiens)
Sequence (P32241 31-457): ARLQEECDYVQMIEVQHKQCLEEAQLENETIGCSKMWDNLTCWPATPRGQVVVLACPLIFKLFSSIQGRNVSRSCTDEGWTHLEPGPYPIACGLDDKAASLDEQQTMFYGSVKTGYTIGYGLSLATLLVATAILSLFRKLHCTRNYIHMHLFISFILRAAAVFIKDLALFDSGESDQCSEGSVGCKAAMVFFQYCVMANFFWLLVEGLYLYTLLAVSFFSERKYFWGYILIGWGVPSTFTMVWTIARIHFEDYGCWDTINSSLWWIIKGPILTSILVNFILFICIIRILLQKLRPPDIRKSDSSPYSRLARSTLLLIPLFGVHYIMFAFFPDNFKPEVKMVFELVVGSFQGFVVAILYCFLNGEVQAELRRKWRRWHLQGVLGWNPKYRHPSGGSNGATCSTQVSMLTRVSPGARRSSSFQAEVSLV
Assay: Filter binding assay, membranes of cells transiently transfected with human VPAC1, 125I-labeled VIP tracer (Table 2)
Set-up: expressed in transfected cells
Conditions: read-out: Human VPAC1 Receptor Binding
Method: For this assay, the solutions and equipment include: Presoak solution: 0.5% Polyethyleneamine in Aqua dest. Buffer for flushing filter plates: 25 mM HEPES pH 7.4 Blocking buffer: 25 mM HEPES pH 7.4; 0.2% protease free BSA Assay buffer: 25 mM HEPES pH 7.4; 0.5% protease free BSA Dilution and assay plate: PS-Microplate, U form Filtration Plate Multiscreen FB Opaque Plate; […] Type B Glasfiber filter In order to prepare the filter plates, aspirate the presoak solution by vacuum filtration. […]
Where no end group is shown, it is not given here. [ ]: non-standard residue; d: D form. The star is where a group is joined. Hexanoyl = CCCCCC(=O)*; Aib = CC(C)(N)C(=O)O
Flag rule - IC50 less than 0.1 µM flags T; the remaining entries get F.

Could you please tell me whether IC50 recorded for Hexanoyl-HSDAVFTDNYTRLLAKLAAQKYLQSIKNKRYGGPSSGAPPPS [Agonist P197] is less than 0.1 µM? F

What do we get for Hexanoyl-HSDAVFTDNYTRLRKQVAAKKYFQSIKNKRYGGPSSGAPPPS [Agonist P231] ? F

What do we get for Hexanoyl-HSDAVFTLNYTRLRKQVAAKKYLQSIKNKRYGGPSSGAPPPS [Agonist P161] ? F

What do we get for HSDAVFTDNYTRLRKQVAAKKYLQSIKKGGPSSGAPPPS [Agonist P85] ? F

What do we get for Hexanoyl-HSDAVFTDNYTRLRRQVAARRYLQSIRNRRYGGPSSGAPPPS [Agonist P98] ? T

What do we get for Hexanoyl-HSDAVFTKNYTRLRKQVAAKKYLQSIKNKRYGGPSSGAPPPS [Agonist P160] ? T

What do we get for HSDAVFTDNYTRLRRQVAARRYLQSIRNRRYGGPSSGAPPPS [Agonist P71] ? T

What do we get for Hexanoyl-HSDAVFTDNYTRLRKQVAAKKYLQ[Aib]IKNKRYGGPSSGAPPPS [Agonist P187] ? F

----------
target: human VPAC2 (Homo sapiens); construct: expressed in transfected cells; assay: Alpha screen cAMP in vitro potency, human VPAC2 receptor; assay type: cell-based; conditions: cAMP generation; single result from two analyses performed in a single run; read-out: Human VPAC2 Receptor: Alpha Screen EC50
Where no end group is shown, it is not given here. [ ]: non-standard residue; d: D form. The star is where a group is joined. Orn = NCCC[C@H](N)C(=O)O; Hexanoyl = CCCCCC(=O)*; Aib = CC(C)(N)C(=O)O
Kindly supply the reported pEC50 values for the records listed here.
The quantity pEC50 is defined as the negative base-10 logarithm of the molar concentration.

Quick check: pEC50 of Hexanoyl-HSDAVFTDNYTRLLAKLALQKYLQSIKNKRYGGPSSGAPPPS [Agonist P119] ? 9.38

What do we get for Hexanoyl-H[Aib]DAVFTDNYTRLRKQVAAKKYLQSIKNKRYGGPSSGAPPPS [Agonist P166] ? 9.82

What do we get for Hexanoyl-HSDAVFTDNYTRLRQQVAAKKYLQSIKNKRYGGPSSGAPPPS [Agonist P177] ? 9.68

What do we get for Hexanoyl-HSDAVFTDNYTRLR[Aib]QVAA[Aib][Orn]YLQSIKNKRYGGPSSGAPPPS [Agonist P342] ? 9.68

What do we get for Hexanoyl-HSDAVFTDNYTRLQKQVAA[Aib]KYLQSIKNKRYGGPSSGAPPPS [Agonist P250] ? 9.74

What do we get for Hexanoyl-HSDAVFTDNYTRLRKQVAAFKYLQSIKNKRYGGPSSGAPPPS [Agonist P148] ? 10.00

What do we get for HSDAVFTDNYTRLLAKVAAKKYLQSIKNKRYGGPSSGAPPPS [Agonist P89] ? 8.91

What do we get for Hexanoyl-HSDAVFTDNYTRLQ[Aib]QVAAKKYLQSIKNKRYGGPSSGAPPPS [Agonist P258] ? 9.77

----------
Molecular target: human VPAC1 (Homo sapiens, UniProt P32241)
Sequence (P32241 31-457): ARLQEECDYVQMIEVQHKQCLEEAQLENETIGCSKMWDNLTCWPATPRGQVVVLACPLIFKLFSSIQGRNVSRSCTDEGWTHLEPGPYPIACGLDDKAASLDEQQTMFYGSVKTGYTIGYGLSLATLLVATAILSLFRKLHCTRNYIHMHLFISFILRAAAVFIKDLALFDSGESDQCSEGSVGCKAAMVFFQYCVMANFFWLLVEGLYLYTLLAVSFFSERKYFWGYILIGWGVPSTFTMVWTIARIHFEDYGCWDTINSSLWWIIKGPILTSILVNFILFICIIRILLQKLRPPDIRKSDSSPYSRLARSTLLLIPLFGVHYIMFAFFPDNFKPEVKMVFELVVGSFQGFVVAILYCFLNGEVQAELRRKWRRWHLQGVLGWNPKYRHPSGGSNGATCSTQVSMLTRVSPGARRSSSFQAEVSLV
Test: Filter binding assay, membranes of cells transiently transfected with human VPAC1, 125I-labeled VIP tracer (Table 2)
Set-up: expressed in transfected cells
Details: read-out: Human VPAC1 Receptor Binding
Where no end group is shown, it is not given here. The star is where a group is joined. Hexanoyl = CCCCCC(=O)*
measured_parameter: IC50 (µM)
Kindly provide the numeric value in µM only, without the unit symbol.

Quick check: IC50 of Hexanoyl-HSDAVFTDNYTRLRKQVAAKKYLQSIKNKRGGPSSGAPPPS [Agonist P123] ? 0.166

What do we get for Hexanoyl-HSDAVFTDNYTRLKKQVAAKKYLQSIKNKRYGGPSSGAPPPS [Agonist P171] ? 0.174

What do we get for Hexanoyl-HSDAVFTDNYTRLRKQVAAKKYLQNIKNKRYGGPSSGAPPPS [Agonist P125] ? 0.179

What do we get for Hexanoyl-HSDAVFTDNYTRLRAQLAAQKYLQSIKNKRYGGPSSGAPPPS [Agonist P142] ? 0.364

What do we get for Hexanoyl-HSDAVFTDNYTRLRKQVAAKKFLQSIKNKRYGGPSSGAPPPS [Agonist P130] ? 0.233

What do we get for Hexanoyl-HSDAVFTDNYTRLRKQVAAKFYLQSIKNKRYGGPSSGAPPPS [Agonist P186] ? 0.835

What do we get for Hexanoyl-HSDAVFTDNYTRLRKQVAAKKVLQSIKNKRYGGPSSGAPPPS [Agonist P134] ? 0.833

What do we get for Hexanoyl-HSDAVFTDNYTRLRKQVAAKKYLQYIKNKRYGGPSSGAPPPS [Agonist P127] ? 0.29

What do we get for Hexanoyl-HSDAVFTDNYTRLRKQVAAIKYLQSIKNKRYGGPSSGAPPPS [Agonist P149] ? 0.212

What do we get for Hexanoyl-HSDAVFTDNYTRLRK(Ac)QVAAKK(Ac)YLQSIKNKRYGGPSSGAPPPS [Agonist P194] ? 0.173

----------
biological target: human VPAC2 (Homo sapiens, UniProt P41587); construct: expressed in transfected cells; assay: Filter binding assay, membranes of stable VPAC2 cell line, 125I-labeled VIP tracer (Table 2); details: read-out: Human VPAC2 Receptor Binding
Sequence (P41587 24-438): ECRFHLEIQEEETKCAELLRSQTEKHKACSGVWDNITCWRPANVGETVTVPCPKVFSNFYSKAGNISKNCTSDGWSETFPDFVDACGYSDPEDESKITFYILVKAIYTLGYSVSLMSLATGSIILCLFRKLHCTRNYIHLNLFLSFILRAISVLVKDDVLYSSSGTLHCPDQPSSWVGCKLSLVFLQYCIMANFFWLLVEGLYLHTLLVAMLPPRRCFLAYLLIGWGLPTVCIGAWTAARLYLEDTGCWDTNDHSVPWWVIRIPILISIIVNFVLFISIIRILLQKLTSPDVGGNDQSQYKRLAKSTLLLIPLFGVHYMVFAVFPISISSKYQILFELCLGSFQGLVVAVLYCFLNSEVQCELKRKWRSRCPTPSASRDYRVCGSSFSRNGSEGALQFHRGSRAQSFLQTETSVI
Where no end group is shown, it is not given here. [ ]: non-standard residue; d: D form. The star is where a group is joined. hArg = N=C(N)NCCCC[C@H](N)C(=O)O; Nle = CCCC[C@H](N)C(=O)O; Orn = NCCC[C@H](N)C(=O)O; Hexanoyl = CCCCCC(=O)*; Aib = CC(C)(N)C(=O)O
Kindly supply the reported IC50 values for the records listed here.
Kindly provide the numeric value in nM only, without the unit symbol.

Quick check: IC50 of Hexanoyl-HSDAVFTDNYTRLRK(Ac)QVAAKK(Ac)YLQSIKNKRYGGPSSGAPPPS [Agonist P194] ? 0.28

What do we get for Hexanoyl-HSDAVFTDNYTRLQKQVAAK[Aib]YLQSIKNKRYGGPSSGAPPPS [Agonist P251] ? 2.33

What do we get for HSDAVFTDNYTRLRKQVAASKYLQSIKNKRYGGPSSGAPPPS [Agonist P21] ? 4.94

What do we get for Hexanoyl-HSDAVFTDNYTRLR[Aib]QLAAK[Aib]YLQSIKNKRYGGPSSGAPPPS [Agonist P284] ? 0.38

What do we get for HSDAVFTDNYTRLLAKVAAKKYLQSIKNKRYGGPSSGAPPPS [Agonist P89] ? 0.15

What do we get for Hexanoyl-HSDAVFTDNYTRLRKQVAAKKYLQSTKNKRYGGPSSGAPPPS [Agonist P108] ? 0.45

What do we get for Hexanoyl-HSDAVFTDNYTRL[Aib]KQVAAQKYLQSIKNKRYGGPSSGAPPPS [Agonist P243] ? 5.51

What do we get for Hexanoyl-HSD[dA]VFTDNYTRLRKQVAAKKYLQSIKNKRYGGPSSGAPPPS [Agonist P207] ? 0.81

What do we get for Hexanoyl-HSDAVFTDNYTRLRKQVAAKRYLQSIKNKRYGGPSSGAPPPS [Agonist P182] ? 0.17

What do we get for Hexanoyl-HSDAVFTDNYTRLRKQVAAKKYLQ[Aib]IKNKRYGGPSSGAPPPS [Agonist P187] ? 0.17

What do we get for Hexanoyl-HSDAVFTDNYTRLQKQVAA[Aib]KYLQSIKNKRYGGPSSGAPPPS [Agonist P250] ? 0.63

What do we get for Hexanoyl-HSDA[dV]FTDNYTRLRKQVAAKKYLQSIKNKRYGGPSSGAPPPS [Agonist P210] ? 0.68

What do we get for Hexanoyl-HSDAVFTDNYTRLRAQLAAQKYLQSIKNKRYGGPSSGAPPPS [Agonist P142] ? 0.58

What do we get for Hexanoyl-HSDAVFTDNYTRLRKQVAAAKYLQSIKNKRYGGPSSGAPPPS [Agonist P181] ? 0.29

What do we get for Hexanoyl-HSDAVFTDNYTRLRKQVAAKQYLQSIKNKRYGGPSSGAPPPS [Agonist P183] ? 0.26

What do we get for Hexanoyl-HSDAVFTDNYTRL[Aib]KQVAA[Aib]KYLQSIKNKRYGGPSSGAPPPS [Agonist P242] ? 6.78

What do we get for Hexanoyl-HSDAVFTDNYTRLQKQVAAQKYLQSIKNKRYGGPSSGAPPPS [Agonist P252] ? 0.98

What do we get for Hexanoyl-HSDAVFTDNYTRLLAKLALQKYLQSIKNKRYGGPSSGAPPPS [Agonist P119] ? 0.48

What do we get for HSDAVFTDNYTRLRKQVAAKKYLQSIKKGGPSSGAPPPS [Agonist P85] ? 1.7

What do we get for Hexanoyl-HSDAVFTDNYTRLRKQVAAVKYLQSIKNKRYGGPSSGAPPPS [Agonist P146] ? 0.52

What do we get for Hexanoyl-HSDAVFTDQYTRLLAKLALQKYLQSIKQKRYGGPSSGAPPPS [Agonist P192] ? 0.53

What do we get for Hexanoyl-HSDAVFTDNYTRLRKQVAAKKTLQSIKNKRYGGPSSGAPPPS [Agonist P131] ? 5.67

What do we get for Hexanoyl-HSDAVFTDNYTRLQKQVAAKKYLQSIKNKRYGGPSSGAPPPS [Agonist P172] ? 3.58

What do we get for Hexanoyl-HSDAVFTDNYTRLRKQVAALKYLQSIKNKRYGGPSSGAPPPS [Agonist P151] ? 0.72

What do we get for Hexanoyl-HSDAVFTDNYTRLQ[Aib]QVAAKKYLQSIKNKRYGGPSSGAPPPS [Agonist P258] ? 0.63

What do we get for Hexanoyl-HSDAVFTDNYTRLR[Aib]Q[Nle]AA[Aib]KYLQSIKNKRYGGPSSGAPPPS [Agonist P325] ? 0.4

What do we get for Hexanoyl-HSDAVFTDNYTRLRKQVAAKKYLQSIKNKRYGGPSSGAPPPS [Agonist P31] ? 0.23

What do we get for Hexanoyl-HSDAVFTDNYTRLA[Aib]QVAA[Aib]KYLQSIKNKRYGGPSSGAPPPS [Agonist P301] ? 7.27

What do we get for Hexanoyl-HSDAVFTDNYTRL[hArg][Aib]QVAA[Aib]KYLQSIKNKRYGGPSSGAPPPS [Agonist P316] ? 0.38

What do we get for Hexanoyl-HSDAVFTYNYTRLRKQVAAKKYLQSIKNKRYGGPSSGAPPPS [Agonist P163] ? 2

What do we get for Hexanoyl-HSDAVFTDNYTRLR[Orn]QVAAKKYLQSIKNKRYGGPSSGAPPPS [Agonist P307] ? 0.28

What do we get for Hexanoyl-HSEAVFTDNYTRLRKQVAAKKYLQSIKNKRYGGPSSGAPPPS [Agonist P224] ? 0.35

What do we get for Hexanoyl-HSDAVFTENYTRLRKQVAAKKYLQSIKNKRYGGPSSGAPPPS [Agonist P159] ? 0.17

Data provenance is patent US20080026996A1.
